Recorded values, source patent US20220298235A1.

study system: T1, Human IL12 (His Tag) (human, UniProt P29459 23-219; P29460 23-328)
T1 construct: Bought His-tagged heterodimer
T1 sequence (looked up) 1: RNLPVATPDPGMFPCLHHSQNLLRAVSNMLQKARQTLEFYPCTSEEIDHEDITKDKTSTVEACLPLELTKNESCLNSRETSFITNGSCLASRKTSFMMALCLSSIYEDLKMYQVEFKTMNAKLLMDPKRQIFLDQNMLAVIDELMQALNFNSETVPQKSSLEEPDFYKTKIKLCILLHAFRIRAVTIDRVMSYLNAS
T1 sequence (looked up) 2: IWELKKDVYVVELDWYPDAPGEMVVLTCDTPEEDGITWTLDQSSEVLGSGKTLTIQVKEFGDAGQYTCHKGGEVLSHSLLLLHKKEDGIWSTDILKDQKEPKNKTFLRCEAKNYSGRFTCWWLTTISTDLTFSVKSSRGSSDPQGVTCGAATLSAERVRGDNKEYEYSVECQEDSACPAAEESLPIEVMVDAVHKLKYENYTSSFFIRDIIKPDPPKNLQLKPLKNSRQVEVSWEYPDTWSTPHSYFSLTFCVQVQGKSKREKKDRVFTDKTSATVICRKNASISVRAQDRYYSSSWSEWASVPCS
assay summary: FACS competition, IL-12-His 20 nM on 293T-IL-12Rβ1&IL-23R cells; antibody 0.12 µg/mL

binder	unit abbreviation	MFI
H5L14 (antibody, human IgG1, kappa, V domains shown, human IgG1 / kappa constant regions; also called humanized antibody H5L14) VH: EVQLVQSGAEVKKPGESLKISCQSSGYSFTTYWIGWVRQMPGQGLEWIGIMSPVDSDIRYNPMFRGQVTMSVDKSSSTAYLQWSSLKASDTAMYYCARRRPGQGYFDFWGQGTMVTVSS VL: EIVLTQSPATLSASPGERATISCRASQSVSSWLAWYQQKPGQAPRSLIYAASNLQSGIPARFSGSGSGTDFTLTISSLEPEDFAVYYCQQYNIYPFTFGQGTRLEIKR	MFI	146
H5L11 (antibody, human IgG1, kappa, V domains shown, human IgG1 / kappa constant regions; also called humanized antibody H5L11) VH: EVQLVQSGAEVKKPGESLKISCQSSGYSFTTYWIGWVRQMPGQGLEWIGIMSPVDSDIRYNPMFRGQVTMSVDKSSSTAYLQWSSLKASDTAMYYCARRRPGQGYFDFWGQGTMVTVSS VL: EIVLTQSPATLSASPGERATISCRASQSVSSWLAWYQQKPGQAPRSLIYSASNLQSGIPARFSGSGSGTDFTLTISSLEPEDFAVYYCQQYNIYPYTFGQGTRLEIKR	MFI	145
H5L9 (antibody, human IgG1, kappa, V domains shown, human IgG1 (P01857) / kappa (P01834) constant regions; also called humanized antibody H5L9) VH: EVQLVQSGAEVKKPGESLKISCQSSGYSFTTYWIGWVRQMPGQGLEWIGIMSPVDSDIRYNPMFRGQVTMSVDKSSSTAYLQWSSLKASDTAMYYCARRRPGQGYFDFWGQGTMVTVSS VL: DIQMTQSPSSLSASVGDRVTITCKASQNVGSWLAWYQQKPGKAPKSLIYSASSRQSGVPSRFSGSGSGTDFTLTISSLQPEDFATYYCQQYDIYPFTFGQGTKLEIKR	MFI	160
